STUDY SYSTEM: Cannabinoid receptor 2 (Mus musculus, UniProt P47936)
Sequence (P47936 whole entry): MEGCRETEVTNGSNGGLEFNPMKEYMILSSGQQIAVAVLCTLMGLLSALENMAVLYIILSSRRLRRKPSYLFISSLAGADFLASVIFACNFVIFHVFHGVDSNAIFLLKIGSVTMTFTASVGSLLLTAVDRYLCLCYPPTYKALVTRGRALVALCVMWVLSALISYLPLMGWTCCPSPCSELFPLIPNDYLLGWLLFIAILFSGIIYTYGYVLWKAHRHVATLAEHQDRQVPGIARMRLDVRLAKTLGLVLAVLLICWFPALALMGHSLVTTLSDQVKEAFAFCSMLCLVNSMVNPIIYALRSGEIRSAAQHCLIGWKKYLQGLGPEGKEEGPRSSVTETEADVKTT
TEST SUMMARY: Agonist activity at mouse CB2 receptor stably expressed in HEK293 cells assessed as inhibition of forskolin-stimulated cAMP accumulation incubated for 5 mins by Lance Ultra cAMP assay
Type: functional, cell-based
# EC50 annotations
PROPERTY: EC50 (nM)

* CCCCC/C=C\C/C=C\C/C=C\C/C=C\CCCC(=O)OC(CO)CO | 18
* CCCCC/C=C\C/C=C\C/C=C\[C@H](C)/C=C\CCCC(=O)OC(CO)CO | 6
* CCCCC/C=C\[C@@H](C)/C=C\C/C=C\C/C=C\CCCC(=O)OC(CO)CO | 50
* CCCCC/C=C\[C@H](C)/C=C\C/C=C\C/C=C\CCCC(=O)OC(CO)CO | 53
* CCCCCCC(C)(C)c1ccc([C@@H]2C[C@H](O)CC[C@H]2CCCO)c(O)c1 | 7

---

Recorded measurements of Emax, one per entry
STUDY SYSTEM: Cannabinoid receptor 1 (Rattus norvegicus) (UniProt P20272)
Sequence (P20272 whole entry): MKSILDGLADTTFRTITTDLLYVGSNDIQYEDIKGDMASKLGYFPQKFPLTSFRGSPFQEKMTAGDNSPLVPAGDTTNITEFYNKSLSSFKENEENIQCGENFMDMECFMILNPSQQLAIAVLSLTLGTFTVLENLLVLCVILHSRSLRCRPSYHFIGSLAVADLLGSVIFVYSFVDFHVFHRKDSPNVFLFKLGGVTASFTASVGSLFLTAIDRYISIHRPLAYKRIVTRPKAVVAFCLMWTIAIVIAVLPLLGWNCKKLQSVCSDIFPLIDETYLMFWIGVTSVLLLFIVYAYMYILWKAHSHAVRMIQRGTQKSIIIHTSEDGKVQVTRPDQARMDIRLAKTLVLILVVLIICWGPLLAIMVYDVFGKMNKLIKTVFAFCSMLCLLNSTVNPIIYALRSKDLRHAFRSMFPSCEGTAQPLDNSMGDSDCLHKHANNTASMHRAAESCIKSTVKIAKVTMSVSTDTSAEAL
TEST SUMMARY: Agonist activity at rat CB1 receptor stably expressed in HEK293 cells assessed as inhibition of forskolin-stimulated cAMP accumulation incubated for 5 mins by Lance Ultra cAMP assay relative to control
Assay type: functional, cell-based
TEST PARAMETERS: filed as agonist
PROPERTY: Emax

• CCCCCCC(C)(C)c1ccc([C@@H]2C[C@H](O)CC[C@H]2CCCO)c(O)c1 = 67.1%
• CCCCC/C=C\[C@@H](C)/C=C\C/C=C\C/C=C\CCCC(=O)OC(CO)CO = 51.6%
• CCCCC/C=C\C/C=C\C/C=C\[C@@H](C)/C=C\CCCC(=O)OC(CO)CO = 74.8%
• CCCCC/C=C\C/C=C\C/C=C\[C@H](C)/C=C\CCCC(=O)OC(CO)CO = 48.7%
• CCCCC/C=C\[C@H](C)/C=C\C/C=C\C/C=C\CCCC(=O)OC(CO)CO = 51.2%
• CCCCC/C=C\C/C=C\C/C=C\C/C=C\CCCC(=O)OC(CO)CO = 47.7%

---

EC50 for assorted compounds
STUDY SYSTEM: Cannabinoid receptor 1 (Rattus norvegicus, UniProt P20272)
Sequence (P20272 whole entry): as above
TEST SUMMARY: Agonist activity at rat CB1 receptor stably expressed in HEK293 cells assessed as inhibition of forskolin-stimulated cAMP accumulation incubated for 5 mins by Lance Ultra cAMP assay
PROPERTY: EC50

* CCCCC/C=C\[C@H](C)/C=C\C/C=C\C/C=C\CCCC(=O)OC(CO)CO | 0.017 µM
* CCCCC/C=C\C/C=C\C/C=C\[C@H](C)/C=C\CCCC(=O)OC(CO)CO | 0.0231 µM
* CCCCC/C=C\[C@@H](C)/C=C\C/C=C\C/C=C\CCCC(=O)OC(CO)CO | 0.007 µM
* CCCCC/C=C\C/C=C\C/C=C\[C@@H](C)/C=C\CCCC(=O)OC(CO)CO | 0.0346 µM
